Reference source: ChEMBL document CHEMBL4359897

- ASSAY SYSTEM: Poly [ADP-ribose] polymerase 1 (Homo sapiens)
- Sequence (P09874 whole entry): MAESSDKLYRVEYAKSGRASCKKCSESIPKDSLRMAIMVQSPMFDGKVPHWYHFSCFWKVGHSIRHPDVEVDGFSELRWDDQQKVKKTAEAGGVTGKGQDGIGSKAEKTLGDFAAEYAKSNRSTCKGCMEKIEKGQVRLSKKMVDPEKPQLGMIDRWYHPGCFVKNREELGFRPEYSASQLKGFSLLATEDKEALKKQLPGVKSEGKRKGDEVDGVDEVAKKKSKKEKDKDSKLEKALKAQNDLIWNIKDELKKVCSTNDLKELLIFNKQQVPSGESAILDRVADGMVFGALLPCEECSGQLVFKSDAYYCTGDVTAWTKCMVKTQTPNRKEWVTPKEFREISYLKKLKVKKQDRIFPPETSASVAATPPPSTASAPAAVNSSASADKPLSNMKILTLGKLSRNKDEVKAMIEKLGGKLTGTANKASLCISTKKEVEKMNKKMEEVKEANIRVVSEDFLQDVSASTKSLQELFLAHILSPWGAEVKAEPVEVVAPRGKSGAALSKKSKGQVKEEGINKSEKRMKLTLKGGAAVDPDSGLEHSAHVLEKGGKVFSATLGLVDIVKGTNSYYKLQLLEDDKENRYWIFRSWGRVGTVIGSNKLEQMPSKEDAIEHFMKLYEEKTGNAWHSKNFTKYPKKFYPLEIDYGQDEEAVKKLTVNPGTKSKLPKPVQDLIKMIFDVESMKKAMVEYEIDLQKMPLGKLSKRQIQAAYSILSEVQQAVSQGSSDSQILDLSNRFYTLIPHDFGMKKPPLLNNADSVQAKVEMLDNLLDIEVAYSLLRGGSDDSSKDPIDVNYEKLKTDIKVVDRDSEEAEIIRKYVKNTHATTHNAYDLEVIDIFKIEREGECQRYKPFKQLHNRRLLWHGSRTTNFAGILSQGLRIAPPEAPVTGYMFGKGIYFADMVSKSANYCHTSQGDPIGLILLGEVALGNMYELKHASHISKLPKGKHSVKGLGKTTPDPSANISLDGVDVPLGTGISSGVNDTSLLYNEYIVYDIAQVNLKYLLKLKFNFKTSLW
- ASSAY SUMMARY: Inhibition of recombinant human full length N-terminal GST- tagged PARP1 expressed in baculovirus infected sf9 cells using Colorimetric HRP as substrate incubated for 30 mins by UV/Vis spectrophotometer analysis
Task for the reader: assign each of the following compounds its reported IC50.
Answers are plain numbers, in nM.

COMPOUND	ASSAY SYSTEM	RECORDED ENDPOINT	NUMERIC VALUE
CC(=O)OC[C@H]1O[C@@H](Sc2nnc(-c3cc4ccccc4[nH]3)n2-c2ccccc2)[C@H](OC(C)=O)[C@@H](OC(C)=O)[C@@H]1OC(C)=O	Poly [ADP-ribose] polymerase 1 (Homo sapiens)	IC50	2220
S=c1[nH]nc(-c2cc3ccccc3[nH]2)n1-c1ccccc1	Poly [ADP-ribose] polymerase 1 (Homo sapiens)	IC50	2100
C=CCSc1nnc(-c2cc3ccccc3n2CC=C)n1-c1ccccc1	Poly [ADP-ribose] polymerase 1 (Homo sapiens)	IC50	350
S=c1[nH]nc(CSc2nnc(-c3cc4ccccc4[nH]3)n2-c2ccccc2)n1-c1ccccc1	Poly [ADP-ribose] polymerase 1 (Homo sapiens)	IC50	8080
CC(O)CSc1nnc(-c2cc3ccccc3[nH]2)n1-c1ccccc1 (stereo unspecified)	Poly [ADP-ribose] polymerase 1 (Homo sapiens)	IC50	330

From here, focus on the item given below.
Given the entry C=CCSc1nnc(-c2cc3ccccc3[nH]2)n1-c1ccccc1 , report its measured IC50.
2400
